Target: HLA-B*07:02
Experiment: IEDB peptide-MHC binding, purified MHC/direct/fluorescence; filed as Kd, often an IC50 or EC50 that approximates it; bounds were set here for any values at or beyond the usual limits of such assays
Details: source organism: Zaire ebolavirus
Measurement name: Kd

Example cases with answers are listed next.
APFARLLNL; 0.0218 µM
GHMMVIFRL; ≥ 20 µM

Could you now look at the following sequence, please?
Find the measured Kd of YDRLASTVI and report it.
≥ 20 µM

----------
Target: HLA-B*07:02
Assay: IEDB peptide-MHC binding, purified MHC/direct/fluorescence; filed as Kd, often an IC50 or EC50 that approximates it; bounds were set here for any values at or beyond the usual limits of such assays
Conditions: source organism: Vibrio cholerae
pKd: −log10 of the molar value.
Measurement name: pKd

# return pKd for AYYWNQNGF , test system: HLA-B*07:02
≤ 4.70

----------
Overview of recorded pKd for various sequences
Target: HLA-B*44:02
Assay: IEDB peptide-MHC binding, purified MHC/competitive/radioactivity; filed as Kd, often an IC50 or EC50 that approximates it; bounds were set here for any values at or beyond the usual limits of such assays
Conditions: source organism: Dengue virus 4 Philippines/H241/1956
Just so you know, pKd here is -log10 of the concentration in molar units; reply with that number alone.

Example cases with answers are listed next.
AEIQPQWIA; 7.58
CESCVYNMM; 6.74

Find the measured pKd of SEAVNDSRFW and report it.
7.94

----------
Molecular target: HLA-A*03:01
Assay: IEDB peptide-MHC binding, purified MHC/competitive/fluorescence; filed as Kd, often an IC50 or EC50 that approximates it; bounds were set here for any values at or beyond the usual limits of such assays
Details: source organism: Salmonella enterica subsp. enterica serovar Typhimurium str. LT2
pKd: −log10 of the molar value.
Measurement name: pKd

Find the measured pKd of ILNSDDEQA and report it.
≤ 4.70

----------
Target: HLA-B*44:03
Experiment: IEDB peptide-MHC binding, purified MHC/competitive/radioactivity; filed as Kd, often an IC50 or EC50 that approximates it; bounds were set here for any values at or beyond the usual limits of such assays
Settings: source organism: Mammarenavirus juninense
pKd: −log10 of the molar value.
Measurement name: pKd

# return pKd for SDFLISEML , test system: HLA-B*44:03
≤ 4.29

----------
Molecular target: HLA-A*11:01
Assay: IEDB peptide-MHC binding, purified MHC/competitive/fluorescence; filed as Kd, often an IC50 or EC50 that approximates it; bounds were set here for any values at or beyond the usual limits of such assays
Conditions: source organism: Vibrio cholerae V52
pKd: −log10 of the molar value.
Measurement name: pKd

Find the measured pKd of TTILGLLPM and report it.
≤ 4.70

----------
Target: HLA-B*40:01
Assay: IEDB peptide-MHC binding, purified MHC/direct/fluorescence; filed as Kd, often an IC50 or EC50 that approximates it; bounds were set here for any values at or beyond the usual limits of such assays
Settings: source organism: Influenza A virus (A/tiger/Thailand/CU-T4/04(H5N1))
pKd: −log10 of the molar value.
Measurement name: pKd

Find the measured pKd of FVRTLFQQM and report it.
≤ 4.70

----------
Target: HLA-B*35:01
Experiment: IEDB peptide-MHC binding, purified MHC/competitive/fluorescence; filed as Kd, often an IC50 or EC50 that approximates it; bounds were set here for any values at or beyond the usual limits of such assays
Details: source organism: Francisella tularensis subsp. tularensis FSC198
Measurement name: Kd
Be sure to follow the number with its unit.

Find the measured Kd of AIYKNTIAY and report it.
98.6 nM
